Molecular target: Sodium-dependent serotonin transporter (Homo sapiens)
Sequence (P31645 whole entry): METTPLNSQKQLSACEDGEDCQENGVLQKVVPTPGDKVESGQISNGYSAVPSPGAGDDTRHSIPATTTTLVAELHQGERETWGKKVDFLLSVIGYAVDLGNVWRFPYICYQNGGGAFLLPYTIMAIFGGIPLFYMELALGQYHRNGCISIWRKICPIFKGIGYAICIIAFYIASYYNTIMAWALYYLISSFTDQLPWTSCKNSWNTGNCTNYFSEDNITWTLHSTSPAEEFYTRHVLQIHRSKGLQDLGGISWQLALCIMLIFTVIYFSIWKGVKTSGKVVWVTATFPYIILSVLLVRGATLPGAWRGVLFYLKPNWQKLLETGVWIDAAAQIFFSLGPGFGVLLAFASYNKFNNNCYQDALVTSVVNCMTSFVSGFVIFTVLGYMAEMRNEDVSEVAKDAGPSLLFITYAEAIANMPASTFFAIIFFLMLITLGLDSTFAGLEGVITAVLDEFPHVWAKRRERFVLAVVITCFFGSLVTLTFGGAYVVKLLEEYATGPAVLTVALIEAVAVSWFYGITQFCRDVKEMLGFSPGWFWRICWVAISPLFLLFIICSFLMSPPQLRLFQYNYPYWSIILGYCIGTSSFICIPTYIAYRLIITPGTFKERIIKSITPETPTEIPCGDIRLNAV
Assay: biochemical
Type: cell-based, HEK293
Readout: Ki (nM)
Reply numerically in nM, unit not repeated.

Solved entries:
COc1ccc2c(c1)CCN([C@H]1CC[C@H](c3c[nH]c4ccc(C#N)cc43)CC1)C2 :: 73.7
COc1ccc2c(c1)CCN([C@H]1CC[C@@H](c3c[nH]c4ccc(C#N)cc43)CC1)C2 :: 4.1
N#Cc1ccc2[nH]cc([C@H]3CC[C@@H](N4CCc5cc(OCCCF)ccc5C4)CC3)c2c1 :: 6.16
N#Cc1ccc2[nH]cc([C@H]3CC[C@H](N4CCc5cc(OCCCF)ccc5C4)CC3)c2c1 :: 327
N#Cc1ccc2[nH]cc([C@H]3CC[C@@H](N4CCc5ccccc5C4)CC3)c2c1 :: 4.51

# input compound: Cc1ccc(Sc2ccccc2CN(C)C)c(N)c1 ; wanted: its Ki 0.73

Look at this compound and give its reported Ki. N#Cc1ccc2[nH]cc([C@H]3CC[C@H](N4CCc5ccccc5C4)CC3)c2c1 90.7

Taken from ChEMBL document CHEMBL1155929.
